These data points were gathered from patent US20250346613A1.

# assay.target: β5c subunit of the 20S proteasome (Homo sapiens, UniProt P20618+P28074)
# Construct: The proteasome tested in the present disclosure was derived from Raji cells; endogenous in cells; host or cells: Raji cells
# method.description: Proteasome inhibitory activity, β5c subunit (Raji cells treated with compound, lysed, Suc-LLVY-AMC substrate)
# Format: cell-based
# measurement.conditions: proteasome from Raji cells incubated with compound 4 h
experimental.readout: IC50

Cc1ccc(C[C@H](NC(=O)CC(=O)NCc2cccc(-c3ccccc3)c2)B(O)O)cc1
≤ 50 nM
O=C(CC(=O)N[C@@H](Cc1coc2ccccc12)B(O)O)NCc1cccc(-c2ccccc2)c1
≤ 50 nM
COc1cccc(CNC(=O)C(C)C(=O)N[C@@H](Cc2ccc(C)cc2)B(O)O)c1 (some centres unmarked)
≤ 50 nM
O=C(NCc1ccc2[nH]ccc2c1)C(Cc1ccccc1)C(=O)N[C@@H](Cc1coc2ccccc12)B(O)O (some centres unmarked)
50 to 200 nM

Hello, please tell me recorded IC50 for this one: COc1cccc(CNC(=O)CC(=O)N[C@@H](Cc2ccc(C)cc2)B(O)O)c1 ≤ 50 nM
